Test system: Candida albicans
Experiment: Antifungal activity against Candida albicans assessed as reduction in fungal cell viability incubated for 24 hrs by two fold serial dilution method
Assay type: functional
// boundary case: MIC equal to 500 µM maps to false (0); strictly smaller maps to true (1)

**Q:** Input CCn1cc(-c2csc(N)n2)c(=O)c2cc(F)c(N3CCN(C/C(=N/OC)c4ccc(F)cc4F)CC3)cc21 ; condition: MIC strictly below 500 µM. Does it hold?
**A:** false (0)

**Q:** Problem: For the compound CCn1cc(-c2csc(N)n2)c(=O)c2cc(F)c(N3CCN(C/C(=N/OC)c4ccc(OC)cc4)CC3)cc21 , is MIC under 500 µM?
**A:** true (1)

**Q:** Threshold test, MIC < 500 µM: CCn1cc(-c2csc(N)n2)c(=O)c2cc(F)c(N3CCN(C/C(C)=N/OCc4ccc(Cl)cc4Cl)CC3)cc21
**A:** false (0)

**Q:** Decide: MIC of CCO/N=C(\C)CN1CCN(c2cc3c(cc2F)c(=O)c(-c2csc(N)n2)cn3CC)CC1 strictly below 500 µM?
**A:** false (0)

**Q:** Say whether its MIC is strictly beneath 500 µM. Entry: CCn1cc(-c2csc(N)n2)c(=O)c2cc(F)c(N3CCN(C/C(=N/OC)c4ccc(Cl)cc4)CC3)cc21
**A:** true (1)

**Q:** Quick check: MIC of CCn1cc(-c2csc(N)n2)c(=O)c2cc(N3CCN(C/C(C)=N/OC)CC3)c(Cl)cc21 under 500 µM?
**A:** false (0)

**Q:** Find out if reported MIC for CCn1cc(-c2csc(N)n2)c(=O)c2cc(F)c(N3CCN(C/C(=N/OC)c4ccc(Cl)cc4Cl)CC3)cc21 is less than 500 µM
**A:** true (1)

**Q:** I wonder whether OC(Cn1cncn1)(Cn1cncn1)c1ccc(F)cc1F [FLUCONAZOLE] has MIC below 500 µM. Can you tell?
**A:** true (1)

**Q:** hey, is MIC for CCn1cc(-c2csc(N)n2)c(=O)c2cc(N3CCN(C/C(C)=N/O)CC3)c(Cl)cc21 lower than 500 µM or not?
**A:** true (1)

**Q:** Regarding CCn1cc(-c2csc(N)n2)c(=O)c2cc(N3CCN(C/C(=N/OC)c4ccc(OC)cc4)CC3)c(Cl)cc21 , kindly confirm whether its MIC is beneath 500 µM.
**A:** true (1)

---

Target: Albumin (Homo sapiens)
Sequence (P02768 whole entry): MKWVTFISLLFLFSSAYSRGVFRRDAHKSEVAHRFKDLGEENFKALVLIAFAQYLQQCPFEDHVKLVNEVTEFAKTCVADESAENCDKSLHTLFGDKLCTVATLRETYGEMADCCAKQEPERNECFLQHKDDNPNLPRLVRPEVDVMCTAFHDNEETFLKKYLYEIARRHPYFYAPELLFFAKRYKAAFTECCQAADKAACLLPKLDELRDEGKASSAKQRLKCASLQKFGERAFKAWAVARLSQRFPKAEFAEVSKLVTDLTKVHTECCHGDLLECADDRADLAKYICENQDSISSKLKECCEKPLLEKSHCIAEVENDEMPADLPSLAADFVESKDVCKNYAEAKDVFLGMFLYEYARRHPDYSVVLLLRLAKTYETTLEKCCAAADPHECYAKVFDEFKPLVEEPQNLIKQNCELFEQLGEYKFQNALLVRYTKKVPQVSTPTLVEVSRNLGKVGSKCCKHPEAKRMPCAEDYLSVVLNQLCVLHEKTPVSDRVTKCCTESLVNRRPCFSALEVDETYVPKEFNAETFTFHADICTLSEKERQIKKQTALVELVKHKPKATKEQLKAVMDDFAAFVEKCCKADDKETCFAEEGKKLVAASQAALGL
Assay: Binding affinity to HSA assessed as binding constant at 286 K by fluorescence spectroscopy based Scatchard method
Format: ADME
Settings: isolated protein
Experimental readout: Kb (×10⁵ L/mol)
Numeric only. Scale: ×10⁵ L/mol

**Q:** Report Kb for CCn1cc(-c2csc(N)n2)c(=O)c2cc(F)c(N3CCN(C/C(C)=N/OC)CC3)cc21
**A:** 1.81
